System: WEEV replicon
Procedure details: microbe, parasite or virus in culture
Measurement context: Western equine encephalitis virus, BSR-T7, read-out: IC50, inhibition of luciferase expression in the WEEV replicon assay
pIC50: −log10 of the molar value.
pIC50 below 5 gives n; pIC50 at or above it gives y.

Examples from the recorded data:
{"Compound": "O=C(NCc1cccc(Cl)c1)C1CCN(C(=O)c2cc3ccccc3n2Cc2ccc(Cl)cc2)CC1", "Class label": "n"}
{"Compound": "O=C(NCc1ccccc1)C1CCN(C(=O)c2cc3sccc3n2Cc2ccc(F)cc2)CC1", "Class label": "n"}
{"Compound": "O=C(NCc1ccccc1)C1CCCN(C(=O)c2cc3ccccc3n2Cc2ccc(Cl)cc2)C1 (stereo not shown)", "Class label": "n"}
{"Compound": "Cc1ccc(CCNC(=O)C2CCN(C(=O)c3cc4ccccc4n3Cc3ccc(Cl)cc3)CC2)cc1", "Class label": "y"}
{"Compound": "O=C(NCc1ccccc1)C1CCN(C(=O)c2cc3ccccc3n2Cc2ccc(F)cc2)CC1", "Class label": "n"}

Does the reported pIC50 for `O=C(NCCc1ccccc1)C1CCN(C(=O)c2cc3ccccc3n2Cc2ccc(Cl)cc2)CC1` fall at or above the 5 mark?
n

Request: `C[C@H](NC(=O)C1CCN(C(=O)c2cc3sccc3n2Cc2ccc(F)cc2)CC1)c1ccccc1`
n

Follow-up entry: `O=C(NCc1ccncc1)C1CCN(C(=O)c2cc3ccccc3n2Cc2ccc(Cl)cc2)CC1`
y

Follow-up item: NC(=O)c1ncn([C@@H]2O[C@H](CO)[C@@H](O)[C@H]2O)n1 [Ribavirin, reference compound]
n

Another compound: `O=C(NCc1ccccc1)C1CCN(C(=O)c2cc3ccccc3n2Cc2ccc(Cl)cc2)CC1`
n

Another: `COc1ccc(CNC(=O)C2CCN(C(=O)c3cc4ccccc4n3Cc3ccc(Cl)cc3)CC2)cc1`
n

Ok, now `C[C@@H](c1ccc(F)cc1)n1c(C(=O)N2CCC(C(=O)NCc3ccccc3)CC2)cc2sccc21`
n

Repeat for the following compound: `C[C@H](NC(=O)C1CCN(C(=O)c2cc3ccccc3n2Cc2ccc(Cl)cc2)CC1)c1ccccc1`
n

And then `C[C@@H](NC(=O)C1CCN(C(=O)c2cc3ccccc3n2Cc2ccc(Cl)cc2)CC1)c1ccccc1` , what is it?
y

----------
WEEV replicon: recorded CC50/IC50 (therapeutic index) for assorted compounds

{"Record smiles": "O=C(c1cc2ccccc2n1Cc1ccc(Cl)cc1)N1CCC(C(=O)N2CCCCC2)CC1", "CC50/IC50 (therapeutic index)": 5.6}
{"Record smiles": "C[C@@H](NC(=O)C1CCN(C(=O)c2cc3ccccc3n2Cc2ccc(Cl)cc2)CC1)c1ccccc1", "CC50/IC50 (therapeutic index)": 14}

Please give CC50/IC50 (therapeutic index), item by item, for the list that follows.
1. O=C(NCc1ccccc1)C1CCN(C(=O)c2cc3sccc3n2Cc2ccc(F)cc2)CC1
2. C[C@H](c1ccc(F)cc1)n1c(C(=O)N2CCC(C(=O)NCc3ccccc3)CC2)cc2sccc21
3. O=C(NCc1ccccc1)C1CCN(C(=O)c2cc3ccccc3n2Cc2ccc(Cl)cc2)CC1

1. >3.9
2. >5.4
3. >6.5

----------
Give measured half-life at 1 µM for each item. Keep answers brief.
Procedure details: Mouse liver microsome
Measurement context: Balb-C, liver microsomes, pH 7.5
Units required after the number.

{"Record smiles": "O=C(NCc1ccccc1)C1CCN(C(=O)c2cc3sccc3n2Cc2ccc(Cl)cc2)CC1", "half-life at 1 µM": "1.7 min"}
{"Record smiles": "O=C(NCc1ccccc1)C1CCN(C(=O)c2cc3ccccc3n2Cc2ccc(Cl)cc2)CC1", "half-life at 1 µM": "7.3 min"}

I'd like to know its half-life at 1 µM. The compound in question is `C[C@@H](NC(=O)C1CCN(C(=O)c2cc3ccccc3n2Cc2ccc(Cl)cc2)CC1)c1ccccc1`
31 min
